target: full-length MALT1 protein (Strep-MALT1(1-824)-His) (Homo sapiens (Human))
Sequence (Q9UDY8 whole entry): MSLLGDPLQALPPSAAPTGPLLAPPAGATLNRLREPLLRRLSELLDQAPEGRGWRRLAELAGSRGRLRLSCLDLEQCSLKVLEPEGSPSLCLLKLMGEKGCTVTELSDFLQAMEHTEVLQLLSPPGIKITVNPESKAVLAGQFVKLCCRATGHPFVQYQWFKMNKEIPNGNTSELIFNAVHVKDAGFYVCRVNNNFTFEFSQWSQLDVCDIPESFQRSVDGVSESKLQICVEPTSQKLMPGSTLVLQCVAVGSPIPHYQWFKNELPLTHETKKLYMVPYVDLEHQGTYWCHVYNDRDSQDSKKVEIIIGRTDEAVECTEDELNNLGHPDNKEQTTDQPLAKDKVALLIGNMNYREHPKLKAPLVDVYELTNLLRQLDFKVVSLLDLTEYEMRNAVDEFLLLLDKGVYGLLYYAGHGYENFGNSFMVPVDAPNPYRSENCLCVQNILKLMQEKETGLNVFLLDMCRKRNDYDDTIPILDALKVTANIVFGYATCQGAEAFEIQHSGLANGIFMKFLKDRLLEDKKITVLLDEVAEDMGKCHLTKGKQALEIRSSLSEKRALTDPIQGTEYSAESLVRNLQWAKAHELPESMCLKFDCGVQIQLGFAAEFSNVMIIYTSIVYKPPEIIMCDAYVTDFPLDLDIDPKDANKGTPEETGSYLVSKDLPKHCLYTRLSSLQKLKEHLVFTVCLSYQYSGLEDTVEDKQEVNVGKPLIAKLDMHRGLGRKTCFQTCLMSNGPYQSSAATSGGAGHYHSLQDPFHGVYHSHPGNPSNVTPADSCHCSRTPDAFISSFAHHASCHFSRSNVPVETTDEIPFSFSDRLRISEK
Please use true for IC50 under 30 nM and false for everything else, ties included.

Example results:
Nc1cnnn1-c1ncc(NC(=O)c2cnn(-c3cccc4c(=O)[nH]ccc34)c2C(F)(F)F)cc1Cl [Cpd 178]
false
N#Cc1cc(NC(=O)c2cnn(-c3ccnc4ccccc34)c2C(F)(F)F)cnc1-n1nccn1 [Cpd 138]
true
Cc1nc(-n2nccn2)c(Cl)cc1NC(=O)c1cnn(-c2ccc(C)n3nccc23)c1C(F)(F)F [Cpd 318]
false
N#Cc1cc(NC(=O)c2cnn(-c3cnc(N)c4ccccc34)c2C(F)(F)F)cnc1-n1nccn1 [Cpd 156]
true
N#Cc1cc(NC(=O)c2cnn(-c3cccc4nc(F)ccc34)c2C(F)(F)F)cnc1-n1nccn1 [Cpd 291]
false
COC(=O)c1cc(NC(=O)c2cnn(-c3cncc4ccccc34)c2C(F)(F)F)cc(Cl)n1 [Cpd 74]
false
Cn1nnc(-c2ncc(NC(=O)c3cnn(-c4cccc5ncccc45)c3C(F)(F)F)cc2C#N)n1 [Cpd 149]
true
O=C(Nc1cnc(-n2nccn2)c(Cl)c1)c1cnn(-c2cccc3ncsc23)c1C(F)(F)F [Cpd 153]
true
Cc1cc(NC(=O)c2cnn(-c3cccc4scnc34)c2C(F)(F)F)c(C)nc1-n1nccn1 [Cpd 300]
false
Cc1nc(-n2nccn2)c(Cl)cc1NC(=O)c1cnn(-c2cnc(N)c3ccccc23)c1C(F)(F)F [Cpd 180]
true

Here's the next entry for you.
Here's an entry: Cn1ccc(-c2ncc(NC(=O)c3cnn(-c4ccc(F)c5ncccc45)c3C(F)(F)F)cc2C#N)n1 [Cpd 268] . Is its IC50 below 30 nM?
false
